# credit: PubChem BioAssay

System: Neuregulin-1 EGF-like domain
run description: binders of neuregulin-1 EGF-like domain, primary screen, biochemical, small-molecule microarray, 635 nm fluorescence (AID 1081);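 also: binding of the protein to compounds printed on small-molecule microarray slides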
assay setup: small-molecule microarray binding, higher = more signal
This section presents compounds with their documented composite z-score values.
experimental endpoint: composite z-score

compound | readout value
CC(CCN1CCCCc2nc(C)c(C)cc21)=NO[C@H](C)c1cn([C@@H]2COC[C@H]2O)nn1 | 1.18
CO[C@H]1COC(=O)CCC[C@H](C)[C@@H](OC)COC(=O)CC=C[C@@H]1C | -0.179
COCCNC(=O)OCC1CCCC2(CC(OC(=O)NCc3cccc4ccccc34)CC(CCC(=O)N[C@@H](C)C(=O)OC)O2)O1 (stereo not given in full) | 1.03
COC(=O)CC=C[C@@H](C)[C@@H](C=NOC[C@@H](C)[C@H](OCc1ccccc1)C(C)C)NS(=O)(=O)c1ccc(C)cc1 | -0.332
Cc1ccc(C(C)C)n1C(=O)OC(C)(C)C | 0.477

###

run description: P. aeruginosa biofilm formation inhibitors, primary screen, strain PAO1, LB-PBS medium, absorbance 600 nm (AID 1176); also: test concentration not given here
assay setup: P. aeruginosa PAO1 growth/biofilm, A600, 12 h; higher = more signal
This section presents compounds with their documented z-score values.

compound | z-score
C[C@@H]1CC[C@H]2C(=O)O[C@@H](CN=[N+]=[N-])CN2[C@H]1c1ccc(Br)cc1 | -0.446
CC(C)CN1CCc2nc(-c3ccccc3)c3c(c2C1)CO[C@@H](C)C3 | -0.588
C#CCCCON=C1C[C@@H](O)[C@@H](O)[C@@H]2[C@@H]3C(=O)N(CC)C(=O)[C@@H]3CC[C@H]12 | -0.143
CCOC(=O)[C@H](Cc1ccccc1)NC(=O)CCC1CC(OC(=O)NCCc2ccc(F)cc2)CC2(CCCC(COC(=O)NCCC(C)C)O2)O1 (stereo partly drawn) | 0.0737
COC(=O)CC=C[C@@H](C)[C@@H](C=NOC(C)CN1CCCCc2nc(C)c(C)cc21)NS(=O)(=O)c1ccc(C)cc1 (stereo partly drawn) | 0.0525
COC(=O)[C@H](CCSC)NC(=O)CC=C[C@@H](C)CO | -0.895
CCc1cc2c(nc1CC)CCN(CCC(C)=NOC(C)CN1CCCCc3nc(C)c(C)cc31)C2 (stereo not drawn) | 0.417
C[C@@H]1CC[C@H]2C(=O)N3[C@@H](CC[C@@H](C)[C@@H]3c3ccc(Br)cc3)C(=O)N2[C@H]1c1ccc(Br)cc1 | -0.27

###

assayed target: E3 ubiquitin-protein ligase XIAP (Homo sapiens) (UniProt P98170)
Sequence (P98170 whole entry, looked up): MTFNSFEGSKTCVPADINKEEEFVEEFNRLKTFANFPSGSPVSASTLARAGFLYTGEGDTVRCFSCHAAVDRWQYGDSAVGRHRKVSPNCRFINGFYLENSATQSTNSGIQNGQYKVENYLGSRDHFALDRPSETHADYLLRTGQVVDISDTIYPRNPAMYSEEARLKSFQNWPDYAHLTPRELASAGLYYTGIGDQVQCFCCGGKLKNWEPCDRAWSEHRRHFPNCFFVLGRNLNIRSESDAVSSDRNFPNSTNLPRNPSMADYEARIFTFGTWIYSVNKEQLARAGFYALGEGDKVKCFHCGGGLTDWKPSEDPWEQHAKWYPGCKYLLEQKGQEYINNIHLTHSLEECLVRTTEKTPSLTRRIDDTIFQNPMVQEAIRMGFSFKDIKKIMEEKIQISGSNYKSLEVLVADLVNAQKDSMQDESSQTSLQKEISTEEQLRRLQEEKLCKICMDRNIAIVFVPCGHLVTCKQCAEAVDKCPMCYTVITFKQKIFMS
run description: XIAP binders, primary screen, biophysical, small-molecule microarray, fluorescence 635 nm (AID 1181);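 also: score merges 667 nm emission and signal to noise over triplicate slides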
assay setup: small-molecule microarray binding, higher = more signal
Please mark true if the recorded composite z-score is equal to or greater than -0.04, and false if it falls below.

compound | class assignment
CC(CCN1CCCc2nc(C)c(C)cc21)=NOC[C@@H](C)[C@H](OCc1ccccc1)C(C)C | true
COC(=O)[C@H](C)NC(=O)CCC1CC(OC(=O)NCc2cccc3ccccc23)CC2(CCCC(COC(=O)NCCOc3ccccc3)O2)O1 (some centres undefined) | false
CCOC(=O)CCN1C(=O)[C@H]2[C@H]3[C@H](O)[C@H](O)CC(=NOCC=C(C)CCC=C(C)C)[C@@H]3CC[C@H]2C1=O | true
O=C1[C@H]2[C@H]3[C@H](O)[C@H](O)CC(=NOC[C@@H](O)COCc4ccco4)[C@@H]3CC[C@H]2C(=O)N1Cc1ccc2c(c1)OCO2 | false
CCN1C(=O)[C@H]2[C@H]3[C@H](O)[C@H](O)CC(=NO[C@H](C)c4cn([C@H](CO)Cc5ccccc5)nn4)[C@@H]3CC[C@H]2C1=O | true
CCOC(=O)[C@H](Cc1ccccc1)NC(=O)CCC1CC(OC(=O)NCCc2ccc(F)cc2)CC2(CCCC(COC(=O)NCc3cccc(C(F)(F)F)c3)O2)O1 (some centres undefined) | false
C[C@@H](c1ccccc1)N1C(=O)[C@H]2[C@H]3[C@H](O)[C@H](O)CC(=NNC(=O)OCc4ccccc4)[C@@H]3CC[C@H]2C1=O | false
CCN1C(=O)[C@H]2[C@H]3[C@H](O)[C@H](O)CC(=NOC[C@@H](O)COCc4ccco4)[C@H]3CC[C@H]2C1=O | false
CO[C@@H](C1CCCCC1)[C@@H](C)[C@H](OCc1cccc(Br)c1)[C@@H](C)CO | false
CCCNC(=O)OC[C@H]1O[C@H](CCON=C2C[C@@H](O)[C@@H](O)[C@@H]3[C@@H]4C(=O)N(CC)C(=O)[C@@H]4CC[C@@H]23)C=C[C@@H]1Oc1ccc(OC)cc1 | false
COC(=O)[C@H](CCSC)NC(=O)CC=C[C@@H](C)CO | true
CC1(C)O[C@H]2O[C@H]([C@H](O)CON=C3[C@H]4CCn5c(=O)n(-c6ccccc6)c(=O)n5[C@H]4[C@H](O)[C@@H]4O[C@H]34)[C@H](O)[C@H]2O1 | false
COC(=O)[C@@H]1CC[C@H](C)[C@@H](c2ccc(C)cc2)N1C(=O)c1ccc(C=NOC[C@@H](O)[C@H]2O[C@@H]3OC(C)(C)O[C@@H]3[C@H]2O)cc1 | false
O=C1C2=CC[C@H]3C(=O)N(C[C@@H]4CCCO4)C(=O)[C@H]3[C@H]2[C@H](O)[C@@H]2O[C@H]12 | true
CCOC(=O)CCN1C(=O)[C@H]2[C@H]3[C@H](O)[C@H](O)CC(=NNC(=O)OCC)[C@H]3CC[C@H]2C1=O | true
COC(=O)[C@@H]1CC[C@H](C)[C@@H](c2ccc(Br)cc2)N1C[C@H](O)CN=[N+]=[N-] | false
COC(=O)CC=C[C@@H](C)[C@@H](C=NOC(C)CN1CCCCc2nc(C)c(C)cc21)NS(=O)(=O)c1ccc(C)cc1 (some centres undefined) | false
O=C1CCCC=C1C(O)C1CCCCC1 (centres undefined) | false
CO[C@H]1C[C@@H]2C[C@H](O)CC(CC(=O)O[C@@H](C=CCC(C)C)C[C@@H]3CC[C@H](C)[C@@H](C1)O3)O2 | true
O=C1[C@H]2[C@H]3[C@H](O)[C@H](O)CC(=NO[C@@H]4O[C@H](CO)[C@@H](O)[C@H](O)[C@H]4O)[C@@H]3CC[C@H]2C(=O)N1C1CCCCC1 | false
COc1ccc(COC(=O)NN=C2C[C@@H](O)[C@@H](O)[C@@H]3[C@@H]4C(=O)N(C5CCCCC5)C(=O)[C@@H]4CC[C@@H]23)cc1 | true
COC(=O)CC=C[C@@H](C)[C@@H](C=NOC[C@@H](C)[C@H](OCc1ccccc1)C(C)C)OC | false
COc1ccc(-c2cnnc(CCCn3ccnc3-c3ccccc3)n2)cc1 | true
CC[C@@H](c1ccccc1)n1c(=O)n2n(c1=O)[C@H]1[C@H](O)[C@@H]3O[C@@H]3C(=NOCc3ccccc3)[C@H]1CC2 | true
COc1ccc(COC(=O)NN=C2C[C@@H](O)[C@@H](O)[C@@H]3[C@@H]4C(=O)N(Cc5ccccc5)C(=O)[C@@H]4CC[C@@H]23)cc1 | false
C[C@@H]1CC[C@H]2C(=O)N3[C@@H](CC[C@@H](C)[C@@H]3c3ccc(Br)cc3)C(=O)N2[C@H]1c1ccc(Br)cc1 | true
CO[C@H]1COC(=O)CC=C[C@H](C)[C@H](OC)COC(=O)[C@@H](C)NC(=O)CC=C[C@@H]1C | true
CCN(CC)CC(O)CN1CCCCc2nc(C)c(C)cc21 (centres undefined) | false
COc1ccc(O[C@H]2C=C[C@@H](c3ccccc3)O[C@@H]2CO)cc1 | false
